Assignment: determine reported T/C for the given compounds.
Test system: CD2F1 mice, L1210 leukemia ip, survival T/C
assayProtocol: NCI In Vivo Anticancer Drug Screen. Data for tumor model L1210 Leukemia (intraperitoneal) in CD2F1 (CDF1) mice
conditionSet: endpoint: mean survival time; dose: 400.0 mg/kg/injection; schedule: Q01DX009 (ip); vehicle: saline with Tween-80; higher = longer survival
Inconclusive results and toxic doses are left out.

Q. Return T/C (reported value) for this compound: `CCOC(=O)Nc1cc(F)cc(C(F)(F)F)c1F`
A. 109 % of control

Q. Give the reported T/C for this compound. `CCCCCCCC(=O)Nc1ccccc1CC`
A. 102 % of control

Q. State its T/C: `CC(C)c1nc(-c2ccccc2)c(-c2ccccc2)[nH]1`
A. 100 % of control

Q. Using the record for `C[Si]1(C)N(c2ccccc2)[Si](C)(C)N(c2ccccc2)[Si](C)(C)N1c1ccccc1` , state its measured T/C.
A. 106 % of control

Q. Answer with reported T/C of NC(=O)NC(CC(=O)O)C(=O)O (stereo unspecified)
A. 95 % of control

Q. Give recorded T/C. `COc1cc(NC(=O)CC(C)=O)c(OC)cc1Cl`
A. 91 % of control

Q. Supply recorded T/C for `O=S(=O)(Nc1ccc(O)cc1)c1ccccc1` here.
A. 95 % of control

Q. Specify measured T/C for `O=C(C[P+](c1ccccc1)(c1ccccc1)c1ccccc1)c1ccccc1` .
A. 103 % of control

Q. Read off the recorded T/C for `CC1(C)CC(=O)C2=C(C1)OC1=C(C(=O)CC(C)(C)C1)C2c1ccccc1[N+](=O)[O-]`
A. 94 % of control

Q. Tell me its T/C given CCC(C)NC(=O)Nc1ccccc1C(F)(F)F (stereo unspecified) as the entry.
A. 94 % of control

Q. State, in one line, measured T/C of CCC(C)C(C(=O)O)c1ccccc1 (stereo unspecified)
A. 98 % of control

Q. Give T/C for the following compound: `COC(=O)C1(C(=O)OC)CCCCC1=O`
A. 95 % of control

Q. Name the recorded T/C of the item COC(=O)C(Br)C(OC)c1ccc(C)cc1 (stereo unspecified) in your answer.
A. 90 % of control

Q. For the compound `Cc1csc2nc[nH]c(=O)c12` , give its measured T/C value.
A. 105 % of control

Q. Please report T/C for the following compound: `CC(=O)Nc1c(Cl)c(Cl)c(Cl)c2c1-c1ccc(Cl)cc1C2`
A. 103 % of control

Q. Identify the reported T/C for the following entry. `O=C(O)/C=C/C(=O)NCc1ccccc1`
A. 98 % of control

Q. Give the value of T/C reported for the following: `S=c1[nH]nc2n1NC(c1ccccc1)=NN2`
A. 106 % of control

Q. Find the measured T/C of `CCC1(c2cccc([N+](=O)[O-])c2)OCCO1` and report it.
A. 103 % of control

Q. Consider the compound `CCN(C(=O)Nc1cccc(Cl)c1)c1ccccc1C` and give its recorded T/C.
A. 97 % of control

Q. Complete the entry with T/C for `COC(=O)c1cc2ccccc2o1`
A. 105 % of control

Q. Respond only with T/C recorded for `CCN(Cc1cccc(S(=O)(=O)O)c1)c1ccc(C(=C2C=CC(=[N+](CC)Cc3cccc(S(=O)(=O)O)c3)C=C2)c2ccc(S(=O)(=O)O)cc2)cc1`
A. 95 % of control

Q. Supply measured T/C of `Cc1cccc(C)c1NC(=O)c1cccc(Cl)c1` in your reply.
A. 94 % of control

Q. Write down T/C measured for item N#CC(/C=C/c1ccccc1)Nc1ccccc1N (stereo unspecified)
A. 93 % of control

Q. State its T/C for this compound: `Cc1cc(O)c(Br)c(C)c1Br`
A. 106 % of control

Q. Please look at this compound and report its T/C: `CSc1ccc(SC)nn1`
A. 91 % of control

Q. Tell me its T/C given c1ccc(C2=NC3CCCCC3N=C2c2ccccc2)cc1 (stereo unspecified) as the entry.
A. 103 % of control

---

System: CD2F1 mice, L1210 leukemia ip, survival T/C
assayProtocol: NCI In Vivo Anticancer Drug Screen. Data for tumor model L1210 Leukemia (intraperitoneal) in CD2F1 (CDF1) mice
conditionSet: endpoint: mean survival time; dose: 100.0 mg/kg/injection; schedule: Q04DX003 (ip); vehicle: saline with Tween-80; higher = longer survival
Inconclusive results and toxic doses are left out.
metricName: T/C

Q. Recall and state the measured T/C for `CCOC(=O)c1ccc(NC(=O)NC)cc1` .
A. 92 % of control

Q. Name the recorded T/C of the compound listed here: `CSc1cccc(NC2=NCCO2)c1`
A. 90 % of control

Q. Give the value of T/C reported for the following: `C=CCOc1ccc(OC)cc1`
A. 97 % of control

Q. Consider the compound `Cc1cccc(C)c1NC(=O)c1cccc(Cl)c1` . State its measured T/C.
A. 98 % of control

Q. Tell us which T/C value is on record for `O=c1cc(-c2ccccc2)nc(N[N+](=O)[O-])[nH]1`
A. 100 % of control

Q. Quote T/C reported for `O=[N+]([O-])c1cc([N+](=O)[O-])c2nc3ccccn3c2c1` please.
A. 101 % of control

Q. Give the reported value of T/C for this record: `O=C1C=CC(=Nc2ccc(Cl)cc2)O1`
A. 101 % of control

Q. Tell me its T/C given CCCCCC(CC)OC(=O)Nc1cccc2ccccc12 (stereo not drawn) as the entry.
A. 89 % of control

Q. Annotate the compound `Cc1ccc(-c2[nH]c(=S)[nH]c(=O)c2CCO)cc1` with its measured T/C.
A. 91 % of control

Q. Assign T/C to the following record: `COc1cccc(Cc2c[nH]c(=O)[nH]c2=O)c1`
A. 98 % of control

Q. Look up and state reported T/C for `O=C(O)C[N-]c1ccccc1.O=C(O)C[N-]c1ccccc1.[Ni+2]`
A. 106 % of control

Q. Supply T/C value. Item: `CCCCOB=O`
A. 96 % of control

Q. Name the recorded T/C of the item `Cc1c(O)c(N=NC(N)=S)c2ccccc2c1O` in your answer.
A. 100 % of control

---

Tested on: CD2F1 mice, L1210 leukemia ip, survival T/C
assayProtocol: NCI In Vivo Anticancer Drug Screen. Data for tumor model L1210 Leukemia (intraperitoneal) in CD2F1 (CDF1) mice
conditionSet: endpoint: mean survival time; dose: 400.0 mg/kg/injection; schedule: Q01DX009 (ip); vehicle: other; higher = longer survival
Experimental: The antitumor activity of compounds was measured in mice bearing transplantable tumors. Survival or tumor size were measured and the results are expressed as the measurement made in the treated group (T) divided by the measurement made in the vehicle treated control group (C). The tumor model used in this assay is L1210 Leukemia (intraperitoneal) in CD2F1 (CDF1) mice
Toxic doses and inconclusive results are not listed.
metricName: T/C

Q. Output measured T/C for this item: `CN(Cc1ccc(C#N)cc1)N=Nc1ccc(C(=O)O)cc1`
A. 120 % of control

Q. Item `COc1cc(/C(C)=N\O)ccc1O` : provide T/C
A. 90 % of control

Q. Could you please provide reported T/C for `c1ccc2c(c1)ccc1c3ccccc3[nH]c21` ? Thanks!
A. 96 % of control

Q. Consider the compound `c1ccc2c(c1)OB(C1CCCC1)O2` . State its measured T/C.
A. 109 % of control

Q. Provide measured T/C value, entry: `Cc1cc(OC(=O)Nc2cccc(Cl)c2Cl)ccc1Cl`
A. 106 % of control

---

Test system: CD2F1 mice, L1210 leukemia ip, survival T/C
assayProtocol: NCI In Vivo Anticancer Drug Screen. Data for tumor model L1210 Leukemia (intraperitoneal) in CD2F1 (CDF1) mice
conditionSet: endpoint: mean survival time; dose: 400.0 mg/kg/injection; schedule: Q04DX002 (ip); vehicle: saline; higher = longer survival
Inconclusive results and toxic doses are left out. Non-standard residues stand in square brackets, D forms with d. Residues, ends and D or L forms follow the SMILES beside them. ξ: configuration not given here. ξI = CCC(C)C(N)C(=O)O
I'd be grateful if you could share measured T/C for these entries.

Q. Quote T/C reported for COC(=O)C1CCOC1=O (stereo not given) please.
A. 102 % of control

Q. Entry `O=S(=O)(O)c1cccnc1` needs its T/C filled in; supply it.
A. 97 % of control

Q. Tell me measured T/C for CCC(C)C(NC(=O)CN)C(=O)O (stereo not given) (H-Gly-[ξI]-OH) please.
A. 101 % of control

Q. Output measured T/C for this item: `CNCCC(=N)C(=N)CCNC`
A. 103 % of control

Q. Read off the recorded T/C for `C1CO[P+]2(O1)OCCO2`
A. 95 % of control

---

Tested on: CD2F1 mice, L1210 leukemia ip, survival T/C
assayProtocol: NCI In Vivo Anticancer Drug Screen. Data for tumor model L1210 Leukemia (intraperitoneal) in CD2F1 (CDF1) mice
conditionSet: endpoint: mean survival time; dose: 200.0 mg/kg/injection; schedule: Q01DX009 (ip); vehicle: saline with Tween-80; higher = longer survival
Toxic doses and inconclusive results are not listed.
Kindly supply the reported T/C values for the records listed here.

Q. Quickly give me recorded T/C for `CCOC(=O)Nc1cc(F)cc(C(F)(F)F)c1F`
A. 97 % of control

Q. Query T/C for `O=C(O)CNCP(=O)(O)O`
A. 93 % of control

Q. Determine its reported T/C: `CC(=O)Nc1c(Cl)c(Cl)c(Cl)c2c1-c1ccc(Cl)cc1C2`
A. 103 % of control

Q. Dear colleague, please send me the reported T/C for `O=C(CNC(=O)Nc1cccc(C(F)(F)F)c1)N/N=C/c1c(O)ccc2ccccc12` when you can.
A. 100 % of control

Q. Fill in reported T/C for this entry: `CC[C@H](CC[C@@H](C)[C@H]1CC[C@H]2[C@@H]3CC=C4C[C@@H](O)CC[C@]4(C)[C@H]3CC[C@]12C)C(C)C`
A. 101 % of control

The origin of these recorded values is PubChem BioAssay AID256.
